Field: Papp. Provide a value for each of the compounds that follow.
Experiment: Permeability Coefficient in hexadecane membranes model
Type: ADME, cell membranes
Settings: not told
Where a SMILES comes first, the peptide text is derived from it.
Answers are plain numbers, in ×10⁻⁶ cm/s.

[[record]]
compound = "CC(C)(C)NCC(O)c1cc(O)cc(O)c1 (stereo not given)"
unit_abbreviation = "×10⁻⁶ cm/s"
observed_result = 0.96


Your task in this section: give Papp for each listed record.
1. CC(C)[C@H](N)C(=O)OCCOCn1cnc2c(=O)[nH]c(N)nc21
2. O=C1c2c(O)ccc(O)c2C(=O)c2c(NCCNCCO)ccc(NCCNCCO)c21
3. COCCc1ccc(OCC(O)CNC(C)C)cc1 (stereo not given)
4. C[C@H]1O[C@@H](O[C@H]2[C@@H](O)C[C@H](O[C@H]3[C@@H](O)C[C@H](O[C@H]4CC[C@@]5(C)[C@H](CC[C@@H]6[C@@H]5C[C@@H](O)[C@]5(C)[C@@H](C7=CC(=O)OC7)CC[C@]65O)C4)O[C@@H]3C)O[C@@H]2C)C[C@H](O)[C@@H]1O
5. CN(C)C(=N)N=C(N)N
6. CN(CC(=O)O)C(=O)CN [GLYCYLSARCOSINE] (HELM PEPTIDE1{G.[Sar]}$$$$V2.0)
7. OC[C@@H](O)[C@@H](O)[C@H](O)[C@H](O)CO
8. CC(C)(C)NCC(O)COc1cccc2c1C[C@H](O)[C@H](O)C2 (stereo not given in full)

1: 0.39; 2: 0.74; 3: 8.6; 4: 0.12; 5: 0.51; 6: 0.25; 7: 0.17; 8: 0.032

Your task in this section: give Papp for each listed record.
1. Cc1cc(=O)n(-c2ccccc2)n1C [ANTIPYRINE]
2. Cc1ccccc1N1C(=O)c2cc(S(N)(=O)=O)c(Cl)cc2NC1C (stereo not given)
3. OC[C@H]1O[C@@H](O[C@@H]2[C@@H](CO)O[C@](O)(CO)[C@H]2O)[C@H](O)[C@@H](O)[C@H]1O
4. O=C(O)c1cc(/N=N/c2ccc(O)c(C(=O)O)c2)ccc1O
5. O=c1[nH]cnc2c1ncn2[C@H]1CC[C@@H](CO)O1
6. Nc1nc(=O)c2ncn([C@@H]3C[C@H](CO)[C@H]3CO)c2[nH]1

11
1.1
0.081
12
0.099
0.057
